species: Sus scrofa; assay: Inhibition of porcine succinate-cytochrome c reductase at 10 uM using succinate and cytochrome c as substrate by spectrophotometric analysis relative to control

| Compound | U | inhibition |
| --- | --- | --- |
| Clc1cc(Nc2ccccc2)cc(Cl)c1Oc1ccc2ccccc2c1 | % | 78 |
| CC(C)CC(C)c1sccc1NC(=O)c1cn(C)nc1C(F)(F)F (centres undefined) | % | 82 |
| CO/C=C(\C(=O)OC)c1ccccc1Oc1cc(Oc2ccccc2C#N)ncn1 | % | 99 |
| Clc1cc(Cl)c(Oc2c(Cl)cc(Nc3ccccc3)cc2Cl)c(Cl)c1 | % | 89 |

* * *

assay: Inhibition of porcine succinate-cytochrome c reductase using succinate and cytochrome c as substrate by spectrophotometric analysis; design: species or system Sus scrofa
Kindly apply the following: met if IC50 is less than 300 nM, not met in every other case.

| Compound | Category label |
| --- | --- |
| Clc1ccc(Oc2ccc(Nc3ccccc3)cc2Cl)c(Cl)c1 | met |
| Fc1ccccc1Oc1ccc(Nc2ccccc2)cc1 | not met |
| N#Cc1ccccc1Oc1ccc(Nc2ccccc2)cc1 | not met |
| c1ccc(COc2ccc(Oc3ccc(Nc4ccccc4)cc3)cc2)cc1 | not met |
| CO/C=C(\C(=O)OC)c1ccccc1Oc1cc(Oc2ccccc2C#N)ncn1 | met |
| Fc1cccc(Oc2ccc(Nc3ccccc3)cc2)c1F | not met |
| Fc1cccc(Nc2ccc(Oc3ccccc3)cc2)c1 | not met |
| COc1ccc(Oc2ccc(Nc3ccccc3)cc2)cc1 | not met |
| Cc1ccc(Nc2ccc(Oc3ccccc3)cc2)cc1 | not met |
| Brc1ccccc1Oc1ccc(Nc2ccccc2)cc1 | not met |
| Cc1cccc(Nc2ccc(Oc3ccccc3)cc2)c1 | not met |
| Clc1ccc(Oc2ccc(Nc3ccccc3)cc2)c(Cl)c1 | met |
| Cc1ccccc1Nc1ccc(Oc2ccccc2)cc1 | not met |
| CC(C)CC(C)c1sccc1NC(=O)c1cn(C)nc1C(F)(F)F (stereo unspecified) | not met |
| FC(F)(F)c1ccc(Nc2ccc(Oc3ccccc3)cc2)cc1 | met |
| FC(F)(F)c1cccc(Nc2ccc(Oc3ccccc3)cc2)c1 | not met |
| CC(C)(C)c1ccc(Nc2ccc(Oc3ccccc3)cc2)cc1 | not met |
| Clc1cccc(Nc2ccc(Oc3ccccc3)cc2)c1 | not met |
| c1ccc(Nc2ccc(Oc3ccccc3)cc2)cc1 | not met |
| Clc1ccc(Oc2c(Cl)cc(Nc3ccccc3)cc2Cl)c(Cl)c1 | met |
| Clc1cc(Nc2ccccc2)cc(Cl)c1Oc1ccc2ccccc2c1 | met |
| Clc1cc(Cl)c(Oc2c(Cl)cc(Nc3ccccc3)cc2Cl)c(Cl)c1 | met |
| Fc1ccc(Nc2ccc(Oc3ccccc3)cc2)cc1 | not met |
| Clc1ccc(Nc2ccc(Oc3ccccc3)cc2)cc1 | not met |
| Fc1ccc(Br)cc1Oc1ccc(Nc2ccccc2)cc1 | not met |
| Brc1cc(Nc2ccccc2)ccc1Oc1ccccc1 | not met |

* * *

Collected inhibition values appear next to each entry.
species on record: Sus scrofa; assay: Inhibition of porcine succinate-cytochrome c reductase complex 3 at 10 uM using decylubiquinol and cytochrome c as substrate by spectrophotometric analysis relative to control

| Compound | Qualifier operator | inhibition [%] |
| --- | --- | --- |
| Clc1cc(Cl)c(Oc2c(Cl)cc(Nc3ccccc3)cc2Cl)c(Cl)c1 | = | 13 |
| Clc1cc(Nc2ccccc2)cc(Cl)c1Oc1ccc2ccccc2c1 | = | 15 |
| CO/C=C(\C(=O)OC)c1ccccc1Oc1cc(Oc2ccccc2C#N)ncn1 [Azoxystrobin] | = | 92 |
| CC(C)CC(C)c1sccc1NC(=O)c1cn(C)nc1C(F)(F)F (centres undefined) [PENTHIOPYRAD] | < | 10 |

* * *

species on record: Sus scrofa; experiment: Inhibition of porcine succinate-cytochrome c reductase complex 2 at 10 uM using succinate and dichlorophenolindophenol as substrate by spectrophotometric analysis relative to control
Metric: inhibition (%)

| Compound | Metric | U | Measurement |
| --- | --- | --- | --- |
| Clc1cc(Nc2ccccc2)cc(Cl)c1Oc1ccc2ccccc2c1 | inhibition | % | 42 |
| Clc1cc(Cl)c(Oc2c(Cl)cc(Nc3ccccc3)cc2Cl)c(Cl)c1 | inhibition | % | 37 |
| CC(C)CC(C)c1sccc1NC(=O)c1cn(C)nc1C(F)(F)F (centres undefined) | inhibition | % | 90 |
| CO/C=C(\C(=O)OC)c1ccccc1Oc1cc(Oc2ccccc2C#N)ncn1 | inhibition | % | 23 |
